Tested on: 485176-168-R4-J1-PDC complex spheroid growth
Assay: Anticancer human tumor 485176-168-R4-J1-PDC patient-derived pancreatic adenocarcinoma cell line growth inhibition [RAS]
Conditions: curve of first compound; second compound 0.316 µM
pIC50: −log10 of the molar value.
Could you label it rule met if measured pIC50 is 6 or higher, and rule not met otherwise?

Worked cases, answers included:
Compound | Classification
CCN1CCN(Cc2ccc(Nc3ncc(F)c(-c4cc(F)c5nc(C)n(C(C)C)c5c4)n3)nc2)CC1 + C=CC(=O)N1CCN(c2nc(OCC3CCCN3C)nc3c(F)c(-c4nc(N)cc(C)c4C(F)(F)F)c(Cl)cc23)C(C)C1 | rule not met
C[C@@H](NC(=O)c1ncnc(N)c1Cl)c1ncc(C(=O)Nc2cc(C(F)(F)F)c(Cl)cn2)s1 + C=CC(=O)N1CCN(c2nc(OCC3CCCN3C)nc3c(F)c(-c4nc(N)cc(C)c4C(F)(F)F)c(Cl)cc23)C(C)C1 | rule not met
O=C(c1ccc(F)c(F)c1Nc1ccc(I)cc1F)N1CC(O)([C@@H]2CCCCN2)C1 + C=CC(=O)N1CCN(c2nc(OCC3CCCN3C)nc3c(F)c(-c4nc(N)cc(C)c4C(F)(F)F)c(Cl)cc23)C(C)C1 | rule met
NC1c2ccccc2OC12CCN(c1cnc3c(N4CCCc5ncccc54)n[nH]c3n1)CC2 (stereo not given) + C#Cc1c(F)ccc2cc(O)cc(-c3ncc4c(N5CC6CCC(C5)N6)nc(OCC56CCCN5CC(F)C6)nc4c3F)c12 | rule not met
CC(=O)OC12COC1CC(O)C1(C)C(=O)C(O)C3=C(C)C(OC(=O)C(O)C(NC(=O)OC(C)(C)C)c4ccccc4)CC(O)(C(OC(=O)c4ccccc4)C21)C3(C)C (stereo not given) + C=CC(=O)N1CCN(c2nc(OCC3CCCN3C)nc3c(F)c(-c4nc(N)cc(C)c4C(F)(F)F)c(Cl)cc23)C(C)C1 | rule met

Q: Given the entry CC(C)n1nc(-c2ccc3oc(N)nc3c2)c2c(N)ncnc21 + C=CC(=O)N1CCN(c2nc(OCC3CCCN3C)nc3c(F)c(-c4nc(N)cc(C)c4C(F)(F)F)c(Cl)cc23)C(C)C1 , answer whether its pIC50 meets or surpasses 6.
A: rule met

Q: Dear colleague, could you confirm whether CCc1c2c(nc3ccc(O)cc13)-c1cc3c(c(=O)n1C2)COC(=O)[C@]3(O)CC + C=CC(=O)N1CCN(c2nc(OCC3CCCN3C)nc3c(F)c(-c4nc(N)cc(C)c4C(F)(F)F)c(Cl)cc23)C(C)C1 has pIC50 at or above 6?
A: rule met

Q: Reported pIC50 reaches at least 6 for CC(Nc1ccc2c(c1)OCCn1cc(N3C(=O)OCC3C(F)F)nc1-2)C(N)=O (stereo not given) + C#Cc1c(F)ccc2cc(O)cc(-c3ncc4c(N5CC6CCC(C5)N6)nc(OCC56CCCN5CC(F)C6)nc4c3F)c12 ?
A: rule not met

Q: hey, is pIC50 for this one >= 6? CC(C)NCC(C(=O)N1CCN(c2ncnc3c2C(C)CC3O)CC1)c1ccc(Cl)cc1 (stereo not given) + C#Cc1c(F)ccc2cc(O)cc(-c3ncc4c(N5CC6CCC(C5)N6)nc(OCC56CCCN5CC(F)C6)nc4c3F)c12
A: rule not met

Q: Please check the record CC(C)NCC(C(=O)N1CCN(c2ncnc3c2C(C)CC3O)CC1)c1ccc(Cl)cc1 (stereo not given) + C=CC(=O)N1CCN(c2nc(OCC3CCCN3C)nc3c(F)c(-c4nc(N)cc(C)c4C(F)(F)F)c(Cl)cc23)C(C)C1 and state if its pIC50 is at or above 6.
A: rule not met

* * *

System: 485176-168-R4-J1-PDC complex spheroid growth
Test: Anticancer human tumor 485176-168-R4-J1-PDC cell line growth inhibition [RAS];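 further: spheroids exposed to compounds for seven days before readout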;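 on viability, T/C: luminescence viability expressed relative to DMSO vehicle wells set as 100%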
Details: second compound 3.16 µM; first compound 3.16 µM; stronger effect = lower value
Source text: RAS pathway inhibitors in Combinations in Complex Spheroids A high-throughput screen of multi-cell type tumor spheroids was designed to identify active combinations of RAS pathway inhibitors and targeted small molecules. Complex spheroids include a stromal component modeled by human endothelial cells (HUVEC) and fibroblasts modeled by human mesenchymal stem cells (MSCs). […] Compounds. […] If the clinical Cmax for an agent had not been determined, the highest concentration tested was 10 microM. […]
Values of viability, T/C strictly less than 50% map to class 1, and values of at least 50% map to class 0.

Some solved cases for reference:
Compound | Classification
C[C@@H](NC(=O)c1ncnc(N)c1Cl)c1ncc(C(=O)Nc2cc(C(F)(F)F)c(Cl)cn2)s1 + C#Cc1c(F)ccc2cc(O)cc(-c3ncc4c(N5CC6CCC(C5)N6)nc(OCC56CCCN5CC(F)C6)nc4c3F)c12 | class 0
CC1(O)CCCC1n1c(=O)c(C(F)F)cc2cnc(NC3CCN(S(C)(=O)=O)CC3)nc21 (stereo not given) + C#Cc1c(F)ccc2cc(O)cc(-c3ncc4c(N5CC6CCC(C5)N6)nc(OCC56CCCN5CC(F)C6)nc4c3F)c12 | class 0
CC(Nc1ccc2c(c1)OCCn1cc(N3C(=O)OCC3C(F)F)nc1-2)C(N)=O (stereo not given) + C#Cc1c(F)ccc2cc(O)cc(-c3ncc4c(N5CC6CCC(C5)N6)nc(OCC56CCCN5CC(F)C6)nc4c3F)c12 | class 0
NC1c2ccccc2OC12CCN(c1cnc3c(N4CCCc5ncccc54)n[nH]c3n1)CC2 (stereo not given) + C#Cc1c(F)ccc2cc(O)cc(-c3ncc4c(N5CC6CCC(C5)N6)nc(OCC56CCCN5CC(F)C6)nc4c3F)c12 | class 0

Proceed to the following item.
Q: Find out if reported viability, T/C for CC(=O)OC12COC1CC(O)C1(C)C(=O)C(O)C3=C(C)C(OC(=O)C(O)C(NC(=O)OC(C)(C)C)c4ccccc4)CC(O)(C(OC(=O)c4ccccc4)C21)C3(C)C (stereo not given) + C#Cc1c(F)ccc2cc(O)cc(-c3ncc4c(N5CC6CCC(C5)N6)nc(OCC56CCCN5CC(F)C6)nc4c3F)c12 is less than 50%
A: class 1

* * *

Test system: 485176-168-R4-J1-PDC complex spheroid growth
Test: Anticancer human tumor 485176-168-R4-J1-PDC cell line growth inhibition [RAS];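 further: spheroids exposed to compounds for seven days before readout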;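 on viability, T/C: luminescence viability expressed relative to DMSO vehicle wells set as 100%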
Conditions: second compound 0.03 µM; first compound 1 µM; stronger effect = lower value
Catalogue of viability, T/C readings, one per entry.

Compound | viability, T/C
C=CC(=O)N1CCN(c2nc(OCC3CCCN3C)nc3c(F)c(-c4nc(N)cc(C)c4C(F)(F)F)c(Cl)cc23)C(C)C1 (stereo not given) + CCn1c(-c2cccnc2C(C)OC)c2c3cc(ccc31)N1CCOC(CC(NC(=O)C(C(C)C)N(C)C(=O)C3(F)CCN(C(=O)C#CC(C)(C)N(C)C)CC3)C(=O)N3CCCC(N3)C(=O)OCC(C)(C)C2)C1 | 85.8%
CCN1CCN(Cc2ccc(Nc3ncc(F)c(-c4cc(F)c5nc(C)n(C(C)C)c5c4)n3)nc2)CC1 + CCn1c(-c2cccnc2C(C)OC)c2c3cc(ccc31)N1CCOC(CC(NC(=O)C(C(C)C)N(C)C(=O)C3(F)CCN(C(=O)C#CC(C)(C)N(C)C)CC3)C(=O)N3CCCC(N3)C(=O)OCC(C)(C)C2)C1 | 67.4%
C[C@@H](NC(=O)c1ncnc(N)c1Cl)c1ncc(C(=O)Nc2cc(C(F)(F)F)c(Cl)cn2)s1 + CCn1c(-c2cc(N3CCN(C)CC3)cnc2C(C)OC)c2c3cc(ccc31)-c1csc(n1)CC(NC(=O)C1CC1C)C(=O)N1CCCC(N1)C(=O)OCC(C)(C)C2 | 55.8%
CC(Nc1ccc2c(c1)OCCn1cc(N3C(=O)OCC3C(F)F)nc1-2)C(N)=O (stereo not given) + CCn1c(-c2cccnc2C(C)OC)c2c3cc(ccc31)N1CCOC(CC(NC(=O)C(C(C)C)N(C)C(=O)C3(F)CCN(C(=O)C#CC(C)(C)N(C)C)CC3)C(=O)N3CCCC(N3)C(=O)OCC(C)(C)C2)C1 | 73.4%
CC(=O)OC12COC1CC(O)C1(C)C(=O)C(O)C3=C(C)C(OC(=O)C(O)C(NC(=O)OC(C)(C)C)c4ccccc4)CC(O)(C(OC(=O)c4ccccc4)C21)C3(C)C (stereo not given) + CCn1c(-c2cc(N3CCN(C)CC3)cnc2C(C)OC)c2c3cc(ccc31)-c1csc(n1)CC(NC(=O)C1CC1C)C(=O)N1CCCC(N1)C(=O)OCC(C)(C)C2 | 10.8%
CCN1CCN(Cc2ccc(Nc3ncc(F)c(-c4cc(F)c5nc(C)n(C(C)C)c5c4)n3)nc2)CC1 + CCn1c(-c2cc(N3CCN(C)CC3)cnc2C(C)OC)c2c3cc(ccc31)-c1csc(n1)CC(NC(=O)C1CC1C)C(=O)N1CCCC(N1)C(=O)OCC(C)(C)C2 | 47.9%
Cc1nc(N2CCC3(CC2)COC(C)C3N)c(CO)nc1Sc1ccnc(N)c1Cl (stereo not given) + CCn1c(-c2cc(N3CCN(C)CC3)cnc2C(C)OC)c2c3cc(ccc31)-c1csc(n1)CC(NC(=O)C1CC1C)C(=O)N1CCCC(N1)C(=O)OCC(C)(C)C2 | 82.5%
C=CC(=O)Nc1cc(Nc2nccc(-c3cn(C)c4ccccc34)n2)c(OC)cc1N(C)CCN(C)C + CCn1c(-c2cc(N3CCN(C)CC3)cnc2C(C)OC)c2c3cc(ccc31)-c1csc(n1)CC(NC(=O)C1CC1C)C(=O)N1CCCC(N1)C(=O)OCC(C)(C)C2 | 57.9%

Q: Please report the recorded viability, T/C for CC(=O)OC12COC1CC(O)C1(C)C(=O)C(O)C3=C(C)C(OC(=O)C(O)C(NC(=O)OC(C)(C)C)c4ccccc4)CC(O)(C(OC(=O)c4ccccc4)C21)C3(C)C (stereo not given) + CCn1c(-c2cccnc2C(C)OC)c2c3cc(ccc31)N1CCOC(CC(NC(=O)C(C(C)C)N(C)C(=O)C3(F)CCN(C(=O)C#CC(C)(C)N(C)C)CC3)C(=O)N3CCCC(N3)C(=O)OCC(C)(C)C2)C1 .
A: 10.3%

Q: viability, T/C for CC1(O)CCCC1n1c(=O)c(C(F)F)cc2cnc(NC3CCN(S(C)(=O)=O)CC3)nc21 (stereo not given) + CCn1c(-c2cccnc2C(C)OC)c2c3cc(ccc31)N1CCOC(CC(NC(=O)C(C(C)C)N(C)C(=O)C3(F)CCN(C(=O)C#CC(C)(C)N(C)C)CC3)C(=O)N3CCCC(N3)C(=O)OCC(C)(C)C2)C1 ?
A: 65.9%

Q: viability, T/C lookup needed for C=CC(=O)N1CCN(c2nc(OCC3CCCN3C)nc3c(F)c(-c4nc(N)cc(C)c4C(F)(F)F)c(Cl)cc23)C(C)C1 (stereo not given) + CCn1c(-c2cc(N3CCN(C)CC3)cnc2C(C)OC)c2c3cc(ccc31)-c1csc(n1)CC(NC(=O)C1CC1C)C(=O)N1CCCC(N1)C(=O)OCC(C)(C)C2 , thanks.
A: 87.8%

Data credit: PubChem BioAssay AID2060906
